Record: compiled IC50 on D-amino-acid oxidase (Sus scrofa) from multiple reports.

Task: Given CC(=O)c1c[nH]c(C(=O)O)c1 , state its recorded IC50.
Result: < 100 µM

Batch lookup, IC50 per entry.
1. O=C(Nc1ccc2onc(O)c2c1)OCc1ccccc1
2. O=C(O)c1cc(CCc2ccccc2)[nH]n1
3. O=C(O)c1cc[nH]n1
4. O=C(O)c1cc([N+](=O)[O-])[nH]n1
5. O=C(Oc1cc2c(Cl)cccc2[nH]c1=O)c1cc(CCc2ccc(Cl)cc2)c[nH]1
6. O=C(Oc1cc(Cc2cccc3ccccc23)n[nH]c1=O)c1cc(CCc2ccc(F)cc2)n[nH]1

Result:
> 100 µM
< 1 µM
< 100 µM
< 1 µM
1 to 10 µM
0.01 to 0.1 µM

Look up IC50 for the entries below, preserving their order.
1. Oc1cccc2onc(O)c12
2. Oc1noc2c(F)cccc12
3. O=C(Oc1cc(Cc2cccc3ccccc23)n[nH]c1=O)c1cc(CCc2cccc(Cl)c2)n[nH]1
4. CC1CCc2c(C(=O)O)n[nH]c21 (centres unmarked)
5. O=C(Oc1cc(CSc2ccc(Cl)c(Cl)c2)c[nH]c1=O)c1cc(CCc2ccccc2)n[nH]1
6. O=C(Oc1cc(Cc2cccc3ccccc23)n[nH]c1=O)c1cc(CCc2ccccc2Cl)n[nH]1
7. O=C(Oc1cc2c(Cl)cccc2[nH]c1=O)c1cc(CCc2ccccc2)n[nH]1
8. O=C(Oc1cc(Cc2cccc3ccccc23)n[nH]c1=O)c1cc(Cc2ccccc2)n[nH]1

Result:
1. > 100 µM
2. < 100 µM
3. 0.01 to 0.1 µM
4. < 10 µM
5. 0.1 to 1 µM
6. 0.01 to 0.1 µM
7. 0.1 to 1 µM
8. 0.01 to 0.1 µM
